# target-of-assay: Cytochrome P450 1A2 (Homo sapiens)
# protocol: p450-cyp1a2 (AID 410)
# setup-conditions: recombinant CYP1A2, luciferin-ME demethylation, luminescence; series mostly up to 57 µM
Records with an inconclusive call do not appear. Calls of active or inactive are those of the source. Calls come from the whole dose curve.
Outcomes: active, inactive

smiles-structure | group-label
Fc1ccc([C@H]2CCNC[C@H]2COc2ccc3c(c2)OCO3)cc1 | active
CS(=O)(=O)Nc1c(O)ccc2c1CCC[C@H]2C1=NCCN1 | inactive
NCCCCCCCCCCNS(=O)(=O)c1cccc2c(Cl)cccc12 | active
CO[C@]1(C2=NCCN2)COc2ccccc2O1 | inactive
C[C@]12CC3CC(N)(C1)C[C@@](C)(C3)C2 | inactive
OC[C@H]1NC[C@@H](O)[C@@H](O)[C@H]1O | inactive
COc1cc(N)c(Cl)cc1C(=O)CCC1CCN(CCNS(C)(=O)=O)CC1 | inactive
c1ccc2nc(C3=NCCN3)cnc2c1 | active
C[C@](N)(C(=O)O)c1ccc(-c2nn[nH]n2)cc1 | active

---

# protocol: qHTS for Hypoxia signaling pathway (HIF-1) antagonists against the NCATS CANVASS Library (AID 1347374); note: nearly all actives have a fitted effect of over 60% in size
# setup-conditions: HRE-bla ME-180 cells, HIF-1 beta-lactamase reporter, CoCl2; series mostly up to 38.3 µM
Records with an inconclusive call do not appear. The source made the active and inactive calls. Calls come from the whole dose curve; as a rule, active = well fitted inhibition curve with a large enough effect; inconclusive = small, poorly fitted or top-dose-only effect; inactive = no such curve, though single readings can be large or run the other way. Peptide text beside a SMILES is read from it. * marks the point of attachment. Octanoyl = CCCCCCCC(=O)*
Outcomes: T = active, F = inactive

compound | group-label
C[C@@]12CCC[C@@](C)(C(=O)O)[C@H]1C[C@@H](O)[C@]13C[C@H]4C[C@H](O[C@@]4(C)C1)[C@@H]23 | F
COC1C(O)C(OC(N)=O)C(Oc2ccc3c(O)c(NC(=O)c4ccc(O)c(CC=C(C)C)c4)c(=O)oc3c2C)OC1(C)C (centres undefined) | F
CC(O)/C=C/C1(O)C(C)(C)CC(O)CC1(C)O (centres undefined) | F
CO[C@@H]1[C@H](O)[C@@H](C)O[C@@H](OC[C@H]2/C=C/C=C/C(=O)C(C)C[C@H](C)C(O[C@@H]3O[C@H](C)CC4(OC(=O)O[C@@H]4C)C3O)[C@@H](C)/C=C/C(=O)OC2C)[C@@H]1OC (some centres undefined) | F
CN1CCc2cc3c(c4c2[C@H]1[C@@H](O)c1ccccc1-4)OCO3 | T
CCCCCCCC(=O)N[C@@H](CC(C)C)C(=O)N[C@H](C=O)CCC(=O)O (Octanoyl-Leu-Glu-aldehyde) | F
O=C(OC1Cc2c(O)cc(O)cc2OC1c1cc(O)c(O)c(O)c1)c1cc(O)c(O)c(O)c1 (centres undefined) | F
C[C@]12CC[C@]3(C1)[C@H](CC2=O)CC(OC(=O)c1ccccc1)[C@H]1[C@@](CO)(C(=O)O)CCC[C@@]13C (some centres undefined) | F
C[C@@]12CCC[C@@](C)(C(=O)O)[C@H]1CC[C@]13C[C@H]4C[C@H](O[C@@]4(C)C1)[C@H]32 | F
C=C1C[C@@]23C=CC(=O)[C@@](C)(CCC(=O)Nc4c(O)ccc(C(=O)O)c4O)C2C[C@@H]1C(O)C3 (some centres undefined) | F
C=C1C[C@@]23C=CC(=O)[C@@](C)(CCC(=O)Nc4c(OC5O[C@H](CO)[C@@H](O)[C@H](O)[C@H]5O)ccc(C(=O)O)c4O)C2C[C@@H]1CC3 (some centres undefined) | F
COc1ccc([C@@H]2c3cc(OC)c(OC)cc3C(=O)C(C)C2C)cc1OC (some centres undefined) | F
CO[C@H]1/C=C/CC[C@@H](S[C@@H]2O[C@H](CO)[C@@H](O)[C@H](O)[C@H]2O)CC(=O)O[C@@H](/C(C)=C/[C@H](C)C(=O)CCCC2CC(=O)NC(=O)C2)[C@@H](C)[C@@H]1O | T
O=C1C[C@@H](c2ccc(O)c(-c3c(O)cc(O)c4c3O[C@H](c3ccc(O)cc3)CC4=O)c2)Oc2cc(O)cc(O)c21 | F

---

# protocol: COV-362 Cancer Cell Toxicity qHTS against the NCATS CANVASS Library (AID 1347352)
# setup-conditions: COV-362 viability, CellTiter-Glo luminescence, 72 h; series mostly up to 38.3 µM
Records with an inconclusive call do not appear. Activity calls are given as the source filed them. Calls follow the shape of the dose curve; as a rule, active = well fitted cell-killing curve with a large enough effect; inconclusive = small, poorly fitted or top-dose-only effect; inactive = flat fitted curve, though single readings scatter.
Outcomes: label 1 (active), label 0 (inactive)

smiles-structure | group-label
C[C@@H]1O[C@@H](Oc2c(-c3ccc(O)cc3)oc3cc(O)cc(O)c3c2=O)[C@H](O)[C@H](O)[C@H]1O | label 0
CN1C(=O)[C@]23SS[C@@]1(C)C(=O)N2[C@H]1Nc2ccccc2[C@]1(c1c[nH]c2ccccc12)[C@@H]3O | label 1
COc1c(O)cc2oc(-c3ccccc3)cc(=O)c2c1O | label 0
CCCCCC[C@H](CCCCC[C@@H](O)C(N)=O)OC(=O)[C@@H]1CC=CN1C(=O)c1ccccc1O | label 0
C[C@@H]1C(=O)[C@]23CC[C@H]1C[C@]21O[C@H]2C(C)(C)C=CC(=O)[C@@]23COC1=O | label 0

---

# target-of-assay: Furin (Homo sapiens)
# protocol: Furin counterscreen qHTS for Zika virus inhibitors (AID 1347149); note: nearly all actives have a fitted effect of over 70% in size; note: potency is the fitted concentration of half-maximal effect
# setup-conditions: furin enzymatic counterscreen, fluorogenic substrate; series mostly up to 114 µM
Records with an inconclusive call do not appear. The source made the active and inactive calls. The call rests on the fitted dose curve; in most records, active means well fitted inhibition curve with a large enough effect; inconclusive means small, poorly fitted or top-dose-only effect; inactive means no such curve, though single readings can be large or run the other way.

compound | Potency
N#Cc1ccccc1S(=O)(=O)N[C@H]1CO[C@H]2[C@@H]1OC[C@H]2OC(=O)Nc1ccc(Oc2ccccc2)cc1 | inactive
CC(C)c1nn2c(=O)cc(COC(=O)c3ccc(NC(=O)COc4ccccc4)cc3)nc2s1 | inactive
CCCCc1nn2c(=O)cc(COC(=O)c3ccc(NC(=O)c4cccc(OC)c4)cc3)nc2s1 | 41.8 µM (active)
COc1ccc(C(=O)Nc2ccc(C(=O)OCc3cc(=O)n4nc(C5CC5)sc4n3)cc2)cc1 | 13.2 µM (active)
O=C(Nc1ccc(Oc2ccccc2)cc1)O[C@@H]1CO[C@H]2[C@@H]1OC[C@@H]2NS(=O)(=O)c1ccc(Cl)cc1 | inactive
C=CC(C)(C)c1[nH]c2ccccc2c1C1=C(O)C(=O)C(c2c[nH]c3c(CC=C(C)C)cccc23)=C(O)C1=O | inactive
O=C(COc1ccccc1)Nc1ccc(C(=O)OCc2cc(=O)n3nc(C4CC4)sc3n2)cc1 | inactive
Cc1oc2c(cc(NS(=O)(=O)c3ccc(F)cc3)c3ccccc32)c1C(=O)OCc1ccccc1 | inactive
O=C(OC1Cc2c(O)cc(O)cc2OC1c1cc(O)c(O)c(O)c1-c1c(C2Oc3cc(O)cc(O)c3CC2O)cc(O)c(O)c1O)c1cc(O)c(O)c(O)c1 (configuration not stated) | 17.5 µM (active)
O=C(OCC#CCSc1nnc(-c2ccccc2Cl)o1)c1ccc(F)cc1 | inactive
O=C(O)c1ccc(NS(=O)(=O)c2ccc(Cl)c(C(=O)Nc3ccccc3)c2)cc1 | inactive
Clc1ccc(-c2nn3c(COc4cccc(OCc5nnc6sc(-c7ccc(Cl)cc7)nn56)c4)nnc3s2)cc1 | inactive

---

# protocol: qHTS for Inhibitors of Plasmodium falciparum (CP250) proliferation (AID 504320)
# setup-conditions: P. falciparum CP250 in erythrocytes, SYBR Green DNA, 72 h; series mostly up to 6.7 µM
Inconclusive results are not listed. The source made the active and inactive calls. The call rests on the fitted dose curve; in most records, active means well fitted inhibition curve with a large enough effect; inconclusive means small, poorly fitted or top-dose-only effect, or effect the other way; inactive means flat fitted curve, though single readings scatter.
Outcomes: t = active, f = inactive

compound | group-label
C=CCN=C1NC(c2cccc(C(F)(F)F)c2)C(C(=O)OC)=C(C)N1CC (stereo not drawn) | f
CC(Nc1oc(-c2ccccc2)nc1C(C)(C)C)c1ccccc1 (stereo not drawn) | f
Cc1cc2c(nc1C)CCCN2CC(O)CN1CCCc2nc(-c3ccc(Br)cc3)ccc21 (stereo not drawn) | f
CC(=O)C1=C(C)N(Cc2ccccc2)C(=O)NC1c1cccc(F)c1 (stereo not drawn) | f
C[C@H]1C=CCC(=O)NCc2cccc(c2)CNC(=O)N[C@@H]1c1ccccc1 | f
COc1cccc2c1[C@H](C=Cc1ccccc1)[C@@H]([C@H](O)CN=[N+]=[N-])OC2 | f
CCCCC1=CC2=C(c3ccco3)C(=O)C(C)(OC(=O)c3ccc(OC)cc3)C(=O)C2=CN1c1ccc(OC)cc1 (stereo not drawn) | f
COc1ccc(O[C@H]2C=C[C@@H](c3ccccc3)O[C@H]2COC(=O)CCC(C)=NOC[C@@H](O)COCc2ccco2)cc1 | f
COC(=O)N1C2CC3(C)C=C(C)OC1(C)C3c1ccccc12 (stereo not drawn) | f
COC(=O)C1=C(C)N(Cc2ccccc2)C(=NCc2cc(OC)c(OC)c(OC)c2)NC1CCc1ccccc1 (stereo not drawn) | t
COC(=O)[C@@H]1C[C@@]23C(=NN=C(SC)C2Nc2ccccc23)N1C(C)=O (stereo partly drawn) | f
CC(C)CON=C1C[C@@H](O)[C@@H](O)[C@@H]2[C@H]3C(=O)N(Cc4ccc5c(c4)OCO5)C(=O)[C@@H]3CC[C@H]12 | f
C[C@@H]1C=CCC(=O)N[C@@H](c2ccccc2)[C@H](C)C=CCC(=O)N[C@@H]1c1ccccc1 | f
